- tested on: T1, human TF on the cell surface of tumor cells (human, UniProt P13726 33-295)
- T1 construct: whole, on cells; Endogenous TF on TF-positive human tumor cell lines; also called cell surface TF
- protocol details: flow cytometry on MDA-MB-231 cells, antibody at 1 µg/mL
quantity name: MFI
// response body must contain only the number

Some binders with known MFI results, for comparison:
binder: TF-mAb-H38 (antibody, V domains shown, Humanized) VH: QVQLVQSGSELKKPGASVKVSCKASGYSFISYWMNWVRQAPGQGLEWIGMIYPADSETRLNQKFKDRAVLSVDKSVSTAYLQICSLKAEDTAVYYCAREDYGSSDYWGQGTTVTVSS VL: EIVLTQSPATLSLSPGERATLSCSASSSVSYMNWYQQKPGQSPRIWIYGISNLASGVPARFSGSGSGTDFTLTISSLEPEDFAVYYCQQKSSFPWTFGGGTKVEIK
MFI: 2870

binder: TF-mAb-H35 (antibody, V domains shown, Humanized) VH: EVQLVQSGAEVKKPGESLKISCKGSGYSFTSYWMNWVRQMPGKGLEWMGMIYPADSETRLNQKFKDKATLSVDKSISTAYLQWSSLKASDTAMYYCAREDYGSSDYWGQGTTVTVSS VL: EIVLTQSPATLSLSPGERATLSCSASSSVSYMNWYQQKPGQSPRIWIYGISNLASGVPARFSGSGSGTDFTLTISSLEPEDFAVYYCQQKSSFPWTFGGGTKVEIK
MFI: 2930

// switching to the query binder
Task item: Quote MFI reported for TF-mAb-H42 (antibody, V domains shown, Humanized) VH: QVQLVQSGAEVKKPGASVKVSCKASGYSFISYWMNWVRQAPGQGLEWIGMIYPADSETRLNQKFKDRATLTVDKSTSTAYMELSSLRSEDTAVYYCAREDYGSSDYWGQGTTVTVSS VL: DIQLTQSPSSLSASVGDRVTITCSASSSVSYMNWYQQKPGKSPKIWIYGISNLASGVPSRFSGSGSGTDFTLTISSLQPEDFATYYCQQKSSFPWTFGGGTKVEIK please.
Reply: 2970

Data provenance: patent US20190177431A1
